- target under test: Luciferin 4-monooxygenase (Photinus pyralis)
- protocol notes: firefly luciferase enzyme inhibitors, primary screen, biochemical, luminescence, purified enzyme, 2006 set (AID 1141);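 note: cell-free assay with purified firefly luciferase at 100 ng per well in PBS; test concentration not given here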
- details: SteadyGlo luminescence, 30 min, higher = more signal, called active from +8 up or from −8 down
Parameter threshold = -0.7. Response is fulfilled when z-score meets or exceeds it, else not fulfilled.

A selection of reference data follows.
* CC(=O)C1=CCC(c2ccccc2)N(S(=O)(=O)c2ccc(C)cc2)C1 (stereo not drawn) | fulfilled
* [N-]=[N+]=NCc1ccccc1[C@@H]1OC(c2ccc(OCCCO)cc2)=N[C@]1(Cc1ccccc1N=[N+]=[N-])C(=O)NCc1ccccc1 | not fulfilled

From here, focus on the item given below.
Ask: Does the compound "Cc1ccc(S[C@]2(C(=O)NCCN3CCOCC3)CC(=O)N(Cc3cc(C(F)(F)F)cc(C(F)(F)F)c3)[C@@H]2c2ccc(CO)cc2I)cc1" have recorded z-score that is -0.7 or more?
Result: fulfilled

###

- protocol notes: basal MM1S mitochondrial membrane potential changes, profiling panel, cell-based, JC-1 fluorescence, 24 h, 100 nL compound (AID 1170); note: test concentration not given here
- details: higher = more signal
readout type: z-score
Answers are plain numbers.

Record excerpt, results attached:
- COC(=O)c1ccc(C(O)C2C=CC3C(=O)N(C)C(=O)C3N2NC(=O)OC(C)(C)C)o1 (centres undefined): 0.395
- CC(C)(C)OC(=O)CC[C@]1(C(=O)N2CCCCC2)N=C(c2ccc(OCCCO)cc2)O[C@H]1c1ccccc1N=[N+]=[N-]: -0.715
- O=C1OCCC=C[C@H]2OC34C=CCN(Cc5ccccc5)C(=O)[C@H]3N(CCCCCCO)C(=O)[C@@H]4C12 (some centres undefined): -0.248

Record "C=C[C@H](C)[C@@H](O)c1ccc(O)c2ccccc12" . Reported z-score: -1.29

###

- target under test: Torsin-1A-interacting protein 2 (Homo sapiens)
- protocol notes: LULL1 binders on small-molecule microarray, primary screen, cell lysate, human LULL1 lysate, 635/667 nm fluorescence (AID 1092);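 note: probe is lysate of COS7 cells overexpressing human LULL1; score merges per-feature 667 nm fluorescence with signal-to-noise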
- details: hLULL1 lysate binding, 635 nm fluorescence, higher = more signal
Parameter threshold = 2. Response is t when composite z-score meets or exceeds it, else f.

* C=CC[C@@]1(C(=O)NCC(O)CO)N=C(c2ccc(OCCCO)cc2)O[C@@H]1c1ccccc1N=[N+]=[N-] (stereo not given in full) | t

Ask: Does the compound "O=C1C[C@@](C(=O)NC2CC2)(c2ccc([N+](=O)[O-])cc2)[C@@H](c2ccc(CO)cc2)N1CC12CC3CC(CC(C3)C1)C2" have recorded composite z-score that is 2 or more?
Result: f

Ask: Does the compound "N[C@@H](Cc1ccccc1)Cn1cc(-c2ccccc2)nn1" have recorded composite z-score that is 2 or more?
Result: f

Ask: Does the compound "C=CC[C@]1(C(=O)N2CCOCC2)N=C(c2ccc(OCCCO)cc2)O[C@H]1c1ccccc1" have recorded composite z-score that is 2 or more?
Result: t

Ask: Does the compound "Cc1ccc(F)cc1S(=O)(=O)N[C@@H]1CCN(Cc2ccc(-c3ccccc3)cc2)C1" have recorded composite z-score that is 2 or more?
Result: f

Ask: Does the compound O=C1OCCC=C[C@H]2OC34C=CCN(Cc5ccccc5)C(=O)[C@H]3N(CCCCCO)C(=O)[C@@H]4C12 (stereo not given in full) have recorded composite z-score that is 2 or more?
Result: t

Ask: Does the compound "COC(=O)[C@@]1(Cc2ccccc2)[C@H]2c3cc(C(=O)N(C)C)n(Cc4c(-c5ccccc5)noc4C)c3C[C@H]2CN1C(=O)c1ccccc1" have recorded composite z-score that is 2 or more?
Result: t

Ask: Does the compound Cc1cc(C)c(C(O)C2C=CC3C(=O)N(C)C(=O)C3N2Nc2ccccc2)c(C)c1 (stereo not given) have recorded composite z-score that is 2 or more?
Result: t

Ask: Does the compound "CC(C)CNC(=O)[C@@H]1c2ccccc2C(=O)N(Cc2cc(C(F)(F)F)cc(C(F)(F)F)c2)[C@H]1c1ccc(CO)cc1" have recorded composite z-score that is 2 or more?
Result: f

Ask: Does the compound "COCCOC(=O)N1C(=O)[C@@]2(c3cc(C#CCC(C(=O)OC)C(=O)OC)ccc31)[C@H](C(=O)N1CCN(c3ncccn3)CC1)[C@H]1C(=O)O[C@H](c3ccccc3)[C@H](c3ccccc3)N1[C@@H]2c1ccc(OCCO)cc1" have recorded composite z-score that is 2 or more?
Result: t

Ask: Does the compound "COc1ccc(C(=O)Nc2cccc(CN3C(=O)[C@@]4(O[C@@H](CCn5cc(CCO)nn5)[C@H]([Si](C)(C)c5ccc(OC)cc5)[C@H]4C)c4ccccc43)c2)cc1" have recorded composite z-score that is 2 or more?
Result: t

Ask: Does the compound "C[C@]1(C(=O)NCc2ccccc2)c2ccccc2C(=O)N(Cc2cc(F)cc(C(F)(F)F)c2)[C@H]1c1ccc(CO)cc1" have recorded composite z-score that is 2 or more?
Result: t

Ask: Does the compound "CCC[C@@H]1C=C(C(=O)O)[C@H](c2ccc(C)cc2)N1S(=O)(=O)c1ccc(C)cc1" have recorded composite z-score that is 2 or more?
Result: t

Ask: Does the compound "CCCNC(=O)[C@@]1(c2ccc([N+](=O)[O-])cc2)CC(=O)N(CC23CC4CC(CC(C4)C2)C3)[C@@H]1c1ccc(CO)cc1" have recorded composite z-score that is 2 or more?
Result: f

Ask: Does the compound "CC(C)C(=C=CC[C@@H](O)c1ccccc1OCCO)C[C@@H](O)c1ccccn1" have recorded composite z-score that is 2 or more?
Result: t
